- test: clinical
- experimental_conditions: human, in vivo, po
Positions of bridges follow the written chain, without caps; N, C: chain ends. Non-standard residues stand in square brackets, D forms with d. Residues, ends and D or L forms follow the SMILES beside them. *: point of attachment. NH(β-GlcNAc) = CC(=O)N[C@@H]1[C@@H](O)[C@H](O)[C@@H](CO)O[C@H]1N*; Dap = NC[C@H](N)C(=O)O
readout_kind: bioavailability (%)

>>> reading("CC(=O)N[C@@H]1[C@@H](O)[C@H](O)[C@@H](CO)O[C@H]1NC(=O)C[C@@H]1NC(=O)[C@H](CC(C)C)NC(=O)[C@@H]2CNC(=O)C[C@H](NC1=O)C(=O)N[C@@H](Cc1c[nH]c3ccccc13)C(=O)N[C@@H](Cc1ccccc1)C(=O)N2 [Nepadutant] (cyclo(D(NH(β-GlcNAc))DWF[Dap]L); lactam 2-5)")
1
